FYI, the data here is from patent US5385893A.

Hi there, I'd appreciate the recorded Biodistribution: Muscle for every entry that follows.
# assay procedure: Biodistribution of 153Sm complexes in rats (% injected dose per organ, NaI scintillation counting after tail vein injection)
# Assay type: in vivo, Sprague Dawley rats
# test conditions: i.v. tail vein, 2 hours post injection, muscle assumed 43% of body weight
Numbers only, in % INJECTED DOSE.

Examples with their reported Biodistribution: Muscle follow.
In [3]: df
Out[3]:
                            chemical_smiles     units_symbol  quantitative_readout
0  O=P([O-])([O-])CN1Cc2cccc(n2)CN(CP(=O)([O-])[O-])Cc2cccc(n2)C1.[153Sm+3]  % INJECTED DOSE                  1.53
1  O=C([O-])CN1Cc2cccc(n2)CN(CC(=O)[O-])Cc2cccc(n2)CN(CC(=O)[O-])Cc2cccc(n2)C1.[153Sm+3]  % INJECTED DOSE                 0.833
2  CCOP(=O)([O-])CN1Cc2cccc(n2)CN(CP(=O)([O-])OCC)Cc2cccc(n2)C1.[153Sm+3]  % INJECTED DOSE                  1.21

Pending compound:
Input line: Item O=C([O-])CN1Cc2cccc(n2)CN(CC(=O)[O-])Cc2cccc(n2)C1.[153Sm+3] has what recorded Biodistribution: Muscle?
Output line: 0.80

====

# assay procedure: Biodistribution of 153Sm complexes in rats (% injected dose per organ, NaI scintillation counting after tail vein injection)
# Assay type: in vivo, Sprague Dawley rats
# test conditions: i.v. tail vein, 2 hours post injection
Hi there, I'd appreciate the recorded Biodistribution: Kidney for every entry that follows.
Numbers only, in % INJECTED DOSE.

In [3]: df
Out[3]:
                            chemical_smiles               value_type     units_symbol  quantitative_readout
0  O=C([O-])CN1Cc2cccc(n2)CN(CC(=O)[O-])Cc2cccc(n2)CN(CC(=O)[O-])Cc2cccc(n2)C1.[153Sm+3]  Biodistribution: Kidney  % INJECTED DOSE                 0.639

I need Biodistribution: Kidney for every entry listed below, if you could help.
1. O=P([O-])([O-])CN1Cc2cccc(n2)CN(CP(=O)([O-])[O-])Cc2cccc(n2)C1.[153Sm+3]
2. O=C([O-])CN1Cc2cccc(n2)CN(CC(=O)[O-])Cc2cccc(n2)C1.[153Sm+3]
3. CCOP(=O)([O-])CN1Cc2cccc(n2)CN(CP(=O)([O-])OCC)Cc2cccc(n2)C1.[153Sm+3]

Output line:
[1.21, 0.95, 0.74]

====

# assay procedure: Biodistribution of 153Sm complexes in rats (% injected dose per organ, NaI scintillation counting after tail vein injection)
# Format: in vivo, Sprague Dawley rats
# test conditions: i.v. tail vein, 2 hours post injection
value type: Biodistribution: Liver

Examples with their reported Biodistribution: Liver follow.
In [3]: df
Out[3]:
                            chemical_smiles              value_type                 result
0  O=C([O-])CN1Cc2cccc(n2)CN(CC(=O)[O-])Cc2cccc(n2)C1.[153Sm+3]  Biodistribution: Liver   0.68 % INJECTED DOSE
1  O=P([O-])([O-])CN1Cc2cccc(n2)CN(CP(=O)([O-])[O-])Cc2cccc(n2)C1.[153Sm+3]  Biodistribution: Liver   3.71 % INJECTED DOSE
2  O=C([O-])CN1Cc2cccc(n2)CN(CC(=O)[O-])Cc2cccc(n2)CN(CC(=O)[O-])Cc2cccc(n2)C1.[153Sm+3]  Biodistribution: Liver  0.570 % INJECTED DOSE

Pending compound:
Input line: Item CCOP(=O)([O-])CN1Cc2cccc(n2)CN(CP(=O)([O-])OCC)Cc2cccc(n2)C1.[153Sm+3] has what recorded Biodistribution: Liver?
Output line: 5.97 % INJECTED DOSE

====

# assay procedure: Biodistribution of 153Sm complexes in rats (% injected dose per organ, NaI scintillation counting after tail vein injection)
# Assay type: in vivo, Sprague Dawley rats
# test conditions: ratio of average % injected dose, 2 hours post injection
value type: Ratio Bone/Spleen

Examples with their reported Ratio Bone/Spleen follow.
>>> print(df.to_string())
                            chemical_smiles  result
0  O=C([O-])CN1Cc2cccc(n2)CN(CC(=O)[O-])Cc2cccc(n2)C1.[153Sm+3]   2,798
1  O=C([O-])CN1Cc2cccc(n2)CN(CC(=O)[O-])Cc2cccc(n2)CN(CC(=O)[O-])Cc2cccc(n2)C1.[153Sm+3]      22
2  O=P([O-])([O-])CN1Cc2cccc(n2)CN(CP(=O)([O-])[O-])Cc2cccc(n2)C1.[153Sm+3]   1,201

Pending compound:
Input line: Item CCOP(=O)([O-])CN1Cc2cccc(n2)CN(CP(=O)([O-])OCC)Cc2cccc(n2)C1.[153Sm+3] has what recorded Ratio Bone/Spleen?
Output line: 124

====

Hi there, I'd appreciate the recorded Biodistribution: Heart for every entry that follows.
# assay procedure: Biodistribution of 153Sm complexes in rats (% injected dose per organ, NaI scintillation counting after tail vein injection)
# Format: in vivo, Sprague Dawley rats
# test conditions: i.v. tail vein, 2 hours post injection
Please answer using the number first and the unit second.

                                   compound              value_type                 result
0  O=C([O-])CN1Cc2cccc(n2)CN(CC(=O)[O-])Cc2cccc(n2)CN(CC(=O)[O-])Cc2cccc(n2)C1.[153Sm+3] [^153 Sm-TP3A]  Biodistribution: Heart  0.016 % INJECTED DOSE

I need Biodistribution: Heart for every entry listed below, if you could help.
1. CCOP(=O)([O-])CN1Cc2cccc(n2)CN(CP(=O)([O-])OCC)Cc2cccc(n2)C1.[153Sm+3] [^153 Sm-BP2EP]
2. O=P([O-])([O-])CN1Cc2cccc(n2)CN(CP(=O)([O-])[O-])Cc2cccc(n2)C1.[153Sm+3] [^153 Sm-BP2P]

Output line:
1. 0.04 % INJECTED DOSE
2. 0.07 % INJECTED DOSE

Input line: Item O=C([O-])CN1Cc2cccc(n2)CN(CC(=O)[O-])Cc2cccc(n2)C1.[153Sm+3] [^153 Sm-BP2A] has what recorded Biodistribution: Heart?
Output line: 0.02 % INJECTED DOSE

====

# assay procedure: Biodistribution of 153Sm complexes in rats (% injected dose per organ, NaI scintillation counting after tail vein injection)
# Format: in vivo, Sprague Dawley rats
# test conditions: i.v. tail vein, 2 hours post injection
Hi there, I'd appreciate the recorded Biodistribution: Spleen for every entry that follows.
Give bare numbers, in % INJECTED DOSE.

Examples with their reported Biodistribution: Spleen follow.
                            chemical_smiles               value_type  quantitative_readout
0  O=P([O-])([O-])CN1Cc2cccc(n2)CN(CP(=O)([O-])[O-])Cc2cccc(n2)C1.[153Sm+3]  Biodistribution: Spleen                  0.05
1  O=C([O-])CN1Cc2cccc(n2)CN(CC(=O)[O-])Cc2cccc(n2)C1.[153Sm+3]  Biodistribution: Spleen                  0.01

I need Biodistribution: Spleen for every entry listed below, if you could help.
1. CCOP(=O)([O-])CN1Cc2cccc(n2)CN(CP(=O)([O-])OCC)Cc2cccc(n2)C1.[153Sm+3]
2. O=C([O-])CN1Cc2cccc(n2)CN(CC(=O)[O-])Cc2cccc(n2)CN(CC(=O)[O-])Cc2cccc(n2)C1.[153Sm+3]

Output line:
0.32
0.068

====

# assay procedure: Biodistribution of 153Sm complexes in rats (% injected dose per organ, NaI scintillation counting after tail vein injection)
# Assay type: in vivo, Sprague Dawley rats
# test conditions: i.v. tail vein, 2 hours post injection, blood assumed 6.5% of body weight
Hi there, I'd appreciate the recorded Biodistribution: Blood for every entry that follows.
Give bare numbers, in % INJECTED DOSE.

Examples with their reported Biodistribution: Blood follow.
>>> df
                                   compound  quantitative_readout
0  O=P([O-])([O-])CN1Cc2cccc(n2)CN(CP(=O)([O-])[O-])Cc2cccc(n2)C1.[153Sm+3] [^153 Sm-BP2P]                  0.87
1  O=C([O-])CN1Cc2cccc(n2)CN(CC(=O)[O-])Cc2cccc(n2)CN(CC(=O)[O-])Cc2cccc(n2)C1.[153Sm+3] [^153 Sm-TP3A]                 0.437
2  O=C([O-])CN1Cc2cccc(n2)CN(CC(=O)[O-])Cc2cccc(n2)C1.[153Sm+3] [^153 Sm-BP2A]                  0.43

Pending compound:
Input line: Item CCOP(=O)([O-])CN1Cc2cccc(n2)CN(CP(=O)([O-])OCC)Cc2cccc(n2)C1.[153Sm+3] [^153 Sm-BP2EP] has what recorded Biodistribution: Blood?
Output line: 0.45
